PROTOCOL SUMMARY: chemical genetic growth profiling, strain panel (AID 1159580);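 note: tested at 20 µM; growth read once vehicle control cultures reached saturation at 30 °C; 1 = growth at the plate median or of vehicle wells; lower values mean less growth of the strain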
CONDITIONS USED: S. cerevisiae deletion strains, growth OD, locus YML094W, strain GIM5, hits give low values
The whole screen tested about 5,500 compounds, of which about 2,000 (36%) were called active. Roughly 18% stayed inconclusive and do not appear here. Some of the results follow.
Field: label. Allowed values: criterion met (normalized growth < 1) or criterion not met (normalized growth >= 1).

>  <COMPOUND>
Cc1ccc(OS(=O)(=O)c2ccc(C#N)cc2)c(Br)c1

>  <CLASS NAME>
criterion met

$$$$
>  <COMPOUND>
CCOC(=O)c1cc(C)nc(Sc2ccccc2)c1C#N

>  <CLASS NAME>
criterion met

$$$$
>  <COMPOUND>
COc1ccc(OC)c(S(=O)(=O)Nc2ccc(C#N)cc2)c1

>  <CLASS NAME>
criterion not met

$$$$
>  <COMPOUND>
O=C1c2cccc3c([N+](=O)[O-])ccc(c23)C(=O)N1Cc1ccco1

>  <CLASS NAME>
criterion met

$$$$
>  <COMPOUND>
O=S(=O)(Nc1cccc2cccnc12)c1cc(Cl)c(Cl)cc1Cl

>  <CLASS NAME>
criterion met

$$$$
>  <COMPOUND>
Cc1cccc(C)c1NC(=O)C(C)Oc1ccc(Cl)cc1Cl (configuration not stated)

>  <CLASS NAME>
criterion not met

$$$$
>  <COMPOUND>
CCCS(=O)(=O)c1c(C)c(C)n(Cc2ccccc2)c1N

>  <CLASS NAME>
criterion not met

$$$$
>  <COMPOUND>
c1ccc(N=Nc2ccc(Nc3ccccc3)cc2)cc1

>  <CLASS NAME>
criterion met

$$$$

====

PROTOCOL SUMMARY: chemical genetic growth profiling, strain panel (AID 1159580);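 note: tested at 20 µM; growth read once vehicle control cultures reached saturation at 30 °C; 1 = growth at the plate median or of vehicle wells; lower values mean less growth of the strain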
CONDITIONS USED: S. cerevisiae deletion strains, growth OD, locus YDR001C, strain nth1
Among all 5,500 compounds or so, about 2,000 (36%) were called active. Another 18% or so got no clear call; they are omitted. Rule as the data show it: active = normalized growth mostly below about 0.91 (no sharp cut-off); inconclusive = no clear call, values can overlap the other calls; inactive = mostly above about 0.92. This is one part of the list.
Classes used: class 1 (active), class 0 (inactive)

>  <COMPOUND>
COc1cc(O)c(C(=O)/C=C/c2ccc(O)c(OC)c2)c(OC)c1

>  <CLASS NAME>
class 0

$$$$
>  <COMPOUND>
CN(C)CC/C=C1\c2ccccc2Sc2ccc(Cl)cc21

>  <CLASS NAME>
class 0

$$$$
>  <COMPOUND>
S=c1nc[nH]c2nc[nH]c12

>  <CLASS NAME>
class 0

$$$$
>  <COMPOUND>
O=C(O)c1cc2ccccc2c(Cc2c(O)c(C(=O)O)cc3ccccc23)c1O

>  <CLASS NAME>
class 0

$$$$
>  <COMPOUND>
ClC1=C(Cl)C2(Cl)C3C4C=CC(C4)C3C1(Cl)C2(Cl)Cl (configuration not stated)

>  <CLASS NAME>
class 0

$$$$
>  <COMPOUND>
COc1cc(O)c(C(=O)/C=C/c2ccc(OC)c(O)c2)c(OC)c1

>  <CLASS NAME>
class 0

$$$$
>  <COMPOUND>
CC(=O)[C@H]1CCC2C3CCC4=CC(=O)CC[C@]4(C)C3CC[C@@]21C (some centres not stated)

>  <CLASS NAME>
class 0

$$$$
>  <COMPOUND>
C=C(C)C1CNC(C(=O)O)C1CC(=O)O (configuration not stated)

>  <CLASS NAME>
class 0

$$$$
>  <COMPOUND>
COc1cc2c(cc1OC)C(=O)OC2

>  <CLASS NAME>
class 0

$$$$
>  <COMPOUND>
CC1CC2C3CC(F)C4=CC(=O)C=CC4(C)C3(F)C(O)CC2(C)C1(O)C(=O)CO (configuration not stated)

>  <CLASS NAME>
class 0

$$$$
>  <COMPOUND>
ClC1=C(Cl)C2(Cl)C3C(Cl)C=CC3C1(Cl)C2(Cl)Cl (configuration not stated)

>  <CLASS NAME>
class 0

$$$$
>  <COMPOUND>
O=C(O)c1c2ccccc2cc2ccccc12

>  <CLASS NAME>
class 0

$$$$
>  <COMPOUND>
CC(=O)O[C@@H]1C[C@@]2(C)C(CC[C@@H]2C(C)=O)C2CCC3=CC(=O)CC[C@]3(C)C21 (some centres not stated)

>  <CLASS NAME>
class 0

$$$$
>  <COMPOUND>
CC(Oc1ccccc1)C(=O)N[C@@H]1C(=O)N2[C@@H]1SC(C)(C)[C@@H]2C(=O)O (some centres not stated)

>  <CLASS NAME>
class 0

$$$$
>  <COMPOUND>
CN1CCc2cc3c(cc2[C@H]1C1OC(=O)c2c1ccc1c2OCO1)OCO3 (some centres not stated)

>  <CLASS NAME>
class 0

$$$$
>  <COMPOUND>
CC(=O)OCC(=O)[C@H]1CCC2C3CCC4=CC(=O)CC[C@]4(C)C3CC[C@@]21C (some centres not stated)

>  <CLASS NAME>
class 0

$$$$
>  <COMPOUND>
CC(=O)NC1SCCC1=O (configuration not stated)

>  <CLASS NAME>
class 0

$$$$
>  <COMPOUND>
O=C1C=CC(=C(c2ccc(O)cc2)c2ccc(O)cc2)C=C1

>  <CLASS NAME>
class 0

$$$$
>  <COMPOUND>
CC(=O)OCC[N+](C)(C)C

>  <CLASS NAME>
class 0

$$$$
>  <COMPOUND>
COc1ccc2c(c1OC)C(=O)O[C@@H]2[C@H]1c2cc3c(cc2CCN1C)OCO3

>  <CLASS NAME>
class 0

$$$$
>  <COMPOUND>
C[N+](C)(C)CCOC(N)=O

>  <CLASS NAME>
class 0

$$$$
>  <COMPOUND>
CCOC(=O)CCC(=O)O[C@H]1[C@H](O[C@@H]2[C@@H](C)[C@H](O[C@H]3C[C@@](C)(OC)[C@@H](O)[C@H](C)O3)[C@@H](C)C(=O)O[C@H](CC)[C@@](C)(O)[C@H](O)[C@@H](C)C(=O)[C@H](C)C[C@@]2(C)O)O[C@H](C)C[C@@H]1N(C)C

>  <CLASS NAME>
class 0

$$$$
>  <COMPOUND>
CCN(CC)CCCC(C)Nc1ccnc2cc(Cl)ccc12 (configuration not stated)

>  <CLASS NAME>
class 0

$$$$
>  <COMPOUND>
CC(=O)N[C@@H](CC(C)C)C(=O)O

>  <CLASS NAME>
class 0

$$$$
>  <COMPOUND>
COc1cc(/C=C/C(=O)/C=C(O)/C=C/c2ccc(O)c(OC)c2)ccc1O

>  <CLASS NAME>
class 1

$$$$
>  <COMPOUND>
NC(=O)c1ccc[n+]([C@@H]2O[C@H](COP(=O)([O-])OP(=O)(O)OC[C@H]3O[C@@H](n4cnc5c(N)ncnc54)[C@H](O)[C@@H]3O)[C@@H](O)[C@H]2O)c1

>  <CLASS NAME>
class 0

$$$$
>  <COMPOUND>
CN1CCCN=C1COC(=O)C(O)(c1ccccc1)C1CCCCC1 (configuration not stated)

>  <CLASS NAME>
class 0

$$$$
>  <COMPOUND>
Cc1cc(O)c(C)c(O)c1C(=O)O

>  <CLASS NAME>
class 0

$$$$
>  <COMPOUND>
CC1=C(/C=C/C(C)=C/C=C/C(C)=C/C=C/C=C(C)/C=C/C=C(C)/C=C/C2=C(C)C(=O)CCC2(C)C)C(C)(C)CCC1=O

>  <CLASS NAME>
class 0

$$$$
>  <COMPOUND>
NC(=O)C(c1ccccc1)(c1ccccc1)C1CCN(CCc2ccc3c(c2)CCO3)C1 (configuration not stated)

>  <CLASS NAME>
class 0

$$$$
>  <COMPOUND>
C=Cc1c2[nH]c(c1C)C=c1[nH]c(c(C)c1C=C)=CC1N=C(C=c3[nH]c(c(C)c3CCC(=O)O)=C2)C(CCC(=O)O)=C1C (configuration not stated)

>  <CLASS NAME>
class 0

$$$$
>  <COMPOUND>
CC1=C(/C=C/C(C)=C/C=C/C(C)=C/C=C/C=C(C)/C=C/C=C(C)/C=C/C(=O)[C@]2(C)C[C@@H](O)CC2(C)C)C(C)(C)C[C@H](O)C1

>  <CLASS NAME>
class 0

$$$$
>  <COMPOUND>
CCOC(=O)C(Cc1ccc(O)cc1)NC(C)=O (configuration not stated)

>  <CLASS NAME>
class 0

$$$$
>  <COMPOUND>
Cc1[nH]c(C)c(Cl)c(=O)c1Cl

>  <CLASS NAME>
class 0

$$$$
>  <COMPOUND>
COc1cc(NS(=O)(=O)c2ccc(N)cc2)nc(OC)n1

>  <CLASS NAME>
class 0

$$$$
>  <COMPOUND>
C=C1C2CC[C@H]3[C@]4(C)C[C@H](OC5OC(CO)C(OS(=O)(=O)O)C(OS(=O)(=O)O)C5OC(=O)CC(C)C)C[C@@H](C(=O)O)[C@H]4CC[C@]3(C2)[C@H]1O (some centres not stated)

>  <CLASS NAME>
class 0

$$$$
>  <COMPOUND>
CS(=O)(=O)c1ccc(C2=C(c3ccccc3)C(=O)OC2)cc1

>  <CLASS NAME>
class 0

$$$$
